# system: M2(S31) (Influenza A virus, UniProt P0DOF5)
# Construct: expressed in transfected cells; host or cells: CHO cells (membrane preparation adsorbed to SSM sensors)
# Sequence (P0DOF5 whole entry): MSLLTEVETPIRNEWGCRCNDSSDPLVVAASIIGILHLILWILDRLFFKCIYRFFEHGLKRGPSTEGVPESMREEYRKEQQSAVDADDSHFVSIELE
# assay: Cell-free electrophysiology of M2 proton channels on solid supported membranes (IonGate SURFE2R screen)
# Type: biochemical
# assay_setup: 25 μM inhibitor, activation by pH jump 7.0 to 6.0, % inhibition=100×(1−I/Io), read-out: IonGate_M2(S31)_Screen % Inhibition at 25 μM
I'd be grateful if you could share measured inhibition at 25 µM for these entries.

Q: Report measured inhibition at 25 µM on M2(S31) (Influenza A virus, UniProt P0DOF5); entry: NC1CC2CC3CC1CC(Cl)(C2)C3 (stereo not drawn) [Example 39]
A: 11 to 50%

Q: Report measured inhibition at 25 µM on M2(S31) (Influenza A virus, UniProt P0DOF5); entry: N=C(N)C1C2CC3CC(C2)CC1C3 (stereo not drawn) [Example 11]
A: 51 to 95%

Q: Report measured inhibition at 25 µM on M2(S31) (Influenza A virus, UniProt P0DOF5); entry: NC1C2CC3CC1CC(Cl)(C3)C2 (stereo not drawn) [Example 15]
A: 51 to 95%

Q: Report measured inhibition at 25 µM on M2(S31) (Influenza A virus, UniProt P0DOF5); entry: OC1C2CC3CC(CC(Cl)(C3)C2)C1O (stereo not drawn) [Example 41]
A: 1 to 10%

Q: Report measured inhibition at 25 µM on M2(S31) (Influenza A virus, UniProt P0DOF5); entry: COC12CC3CC(C1)C(C#N)C(C3)C2 (stereo not drawn) [Example 44]
A: 1 to 10%

Q: Report measured inhibition at 25 µM on M2(S31) (Influenza A virus, UniProt P0DOF5); entry: NC1C2CC3CC(CC(Cl)(C3)C2)C1N (stereo not drawn) [Example 43]
A: 1 to 10%

Q: Report measured inhibition at 25 µM on M2(S31) (Influenza A virus, UniProt P0DOF5); entry: N#CC1C2CC3CC(C2)CC1C3 (stereo not drawn) [Example 16]
A: 51 to 95%

Q: Report measured inhibition at 25 µM on M2(S31) (Influenza A virus, UniProt P0DOF5); entry: OCCNC1C2CC3CC(C2)CC1C3 (stereo not drawn) [Example 2]
A: 51 to 95%

Q: Report measured inhibition at 25 µM on M2(S31) (Influenza A virus, UniProt P0DOF5); entry: O=C1C(=O)C2CC3CC1CC(O)(C3)C2 [Example 35]
A: 1 to 10%

Q: Report measured inhibition at 25 µM on M2(S31) (Influenza A virus, UniProt P0DOF5); entry: O=C1C(=O)C2CC3CC1CC(Cl)(C3)C2 [Example 40]
A: 1 to 10%

Q: Report measured inhibition at 25 µM on M2(S31) (Influenza A virus, UniProt P0DOF5); entry: OC12CC3CC(C1)C1NC1C(C3)C2 (stereo not drawn) [Example 34]
A: 11 to 50%

Q: Report measured inhibition at 25 µM on M2(S31) (Influenza A virus, UniProt P0DOF5); entry: N=C(N)C1C2CC3CC1CC(Cl)(C3)C2 (stereo not drawn) [Example 14]
A: 51 to 95%

###

# system: M2(S31) (Influenza A virus, UniProt P0DOF5)
# Construct: expressed in transfected cells; host or cells: CHO cells (membrane preparation adsorbed to SSM sensors)
# assay: Cell-free electrophysiology of M2 proton channels on solid supported membranes (IonGate SURFE2R screen)
# Type: biochemical
# assay_setup: 25 μM inhibitor, activation by pH jump 7.0 to 6.0, % inhibition=100×(1−I/Io), read-out: IonGate_M2(S31)_Screen % Inhibition at 25 μM
I'd be grateful if you could share measured inhibition at 25 µM for these entries.

Q: Report measured inhibition at 25 µM on M2(S31) (Influenza A virus, UniProt P0DOF5); entry: NC1CC2CC3CC1CC(O)(C2)C3 (stereo not drawn)
A: 11 to 50%

Q: Report measured inhibition at 25 µM on M2(S31) (Influenza A virus, UniProt P0DOF5); entry: OC12CC3CC(C1)C(n1ccnc1)C(C3)C2 (stereo not drawn)
A: 11 to 50%

Q: Report measured inhibition at 25 µM on M2(S31) (Influenza A virus, UniProt P0DOF5); entry: O=[N+]([O-])C1C2CC3CC(C2)CC1(O)C3 (stereo not drawn)
A: 11 to 50%

Q: Report measured inhibition at 25 µM on M2(S31) (Influenza A virus, UniProt P0DOF5); entry: NCC1C2CC3CC1CC(O)(C3)C2 (stereo not drawn)
A: 11 to 50%

Q: Report measured inhibition at 25 µM on M2(S31) (Influenza A virus, UniProt P0DOF5); entry: NC1C2CC3CC(C2)CC1(O)C3 (stereo not drawn)
A: 51 to 95%

Q: Report measured inhibition at 25 µM on M2(S31) (Influenza A virus, UniProt P0DOF5); entry: OC1C2CC3CC(CC(O)(C3)C2)C1O (stereo not drawn)
A: 1 to 10%

Q: Report measured inhibition at 25 µM on M2(S31) (Influenza A virus, UniProt P0DOF5); entry: NC1C2CC3CC1CC(O)(C3)C2 (stereo not drawn)
A: 11 to 50%

Q: Report measured inhibition at 25 µM on M2(S31) (Influenza A virus, UniProt P0DOF5); entry: NCC1(O)C2CC3CC1CC(O)(C3)C2 (stereo not drawn)
A: 11 to 50%

Q: Report measured inhibition at 25 µM on M2(S31) (Influenza A virus, UniProt P0DOF5); entry: NC1C2CC3CC(C2)CC(C3)C1N (stereo not drawn)
A: 51 to 95%

Q: Report measured inhibition at 25 µM on M2(S31) (Influenza A virus, UniProt P0DOF5); entry: ON=C1C(=NO)C2CC3CC1CC(Cl)(C3)C2
A: 11 to 50%

Q: Report measured inhibition at 25 µM on M2(S31) (Influenza A virus, UniProt P0DOF5); entry: O/N=C1\CC2CC3CC1CC(Cl)(C2)C3 (stereo not drawn)
A: 11 to 50%

Q: Report measured inhibition at 25 µM on M2(S31) (Influenza A virus, UniProt P0DOF5); entry: N#CC1C2CC3CC1CC(Cl)(C3)C2 (stereo not drawn)
A: 11 to 50%

Q: Report measured inhibition at 25 µM on M2(S31) (Influenza A virus, UniProt P0DOF5); entry: C1C2CC3CC1CC(C2)C1NC31 (stereo not drawn)
A: 11 to 50%

Q: Report measured inhibition at 25 µM on M2(S31) (Influenza A virus, UniProt P0DOF5); entry: NC1C2CC3CC(C2)CC1C3 (stereo not drawn)
A: 11 to 50%

Q: Report measured inhibition at 25 µM on M2(S31) (Influenza A virus, UniProt P0DOF5); entry: C1NC2C3CC4CC(C3)CC2(C4)O1 (stereo not drawn)
A: 51 to 95%

Q: Report measured inhibition at 25 µM on M2(S31) (Influenza A virus, UniProt P0DOF5); entry: NC1C2CC3CC1CC(S)(C3)C2 (stereo not drawn)
A: 51 to 95%

Q: Report measured inhibition at 25 µM on M2(S31) (Influenza A virus, UniProt P0DOF5); entry: O=[N+]([O-])C1C2CC3CC1CC(Cl)(C3)C2 (stereo not drawn)
A: 1 to 10%

Q: Report measured inhibition at 25 µM on M2(S31) (Influenza A virus, UniProt P0DOF5); entry: O=C1C(=O)C2CC3CC(CC1C3)C2
A: 11 to 50%
